Test system: NCI-H23 lung
assay.text: NCI tumour cell line growth inhibition, 48 h
measured.attribute: TGI

In the examples that follow, each entry is paired with its recorded TGI.
compound: Fc1ccc(-c2nn3ccccc3c2-c2ccncc2)cc1
result: > 25 µM
--
compound: CCCCOc1ccc(/C=N/Nc2cc(C)nc3ccc(Br)cc23)cc1
result: 3.76 µM
--
compound: C(=C\C(Sc1ccccc1)c1ccccc1)/NNC1=NC(c2ccccc2)C(c2ccccc2)=NN1 (centres undefined)
result: > 100 µM

Switching to the query record.
**Query** Give the reported value of TGI for this record: COc1cc2cc3c4c(cc(OC)c(OC)c4c2cc1OC)CCN3C
**Result** > 50 µM
